procedure_text: Calcein AM cytotoxicity assay, NIH3T3 cells
assay_setup: mouse, nih3t3 cells
Experimental: All compound concentrations were examined in duplicates. […] Zero cytotoxicity is a basic prerequisite for the use of these substances in cosmetical applications. To assess the antitumor activity, the toxicity of new derivatives on panels containing cell lines of different histogenic and species origin was tested (Table 5). […] The compounds listed in Table 5 can be divided into 2 groups. […]

{"compound": "Oc1ccc(CNc2nc(F)nc3c2ncn3C2CCCO2)cc1O (centres unmarked)", "CC50 at 72 h": "> 167 µM"}
{"compound": "CC(C)=CCNc1ncnc2nc[nH]c12 [isopentenyladenine, reference compound]", "CC50 at 72 h": "124 µM"}
{"compound": "Oc1ccccc1CNc1ncnc2nc[nH]c12 [ortho-topolin, reference compound]", "CC50 at 72 h": "94.1 µM"}
{"compound": "CC(CO)CCNc1nc(F)nc2c1ncn2C1CCCO1 (centres unmarked)", "CC50 at 72 h": "139 µM"}
{"compound": "COc1ccc(OC)c(CNc2nc(F)nc3c2ncn3C2CCCO2)c1 (centres unmarked)", "CC50 at 72 h": "> 167 µM"}
{"compound": "COc1cccc(OC)c1CNc1nc(F)nc2c1ncn2C1CCCO1 (centres unmarked)", "CC50 at 72 h": "> 167 µM"}
{"compound": "COc1ccc(CNc2nc(F)nc3c2ncn3C2CCCO2)c(O)c1 (centres unmarked)", "CC50 at 72 h": "158 µM"}
{"compound": "COc1ccc(CNc2nc(F)nc3c2ncn3C2CCCO2)cc1OC (centres unmarked)", "CC50 at 72 h": "> 167 µM"}
{"compound": "Oc1ccccc1CNc1nc(F)nc2c1ncn2C1CCCO1 (centres unmarked)", "CC50 at 72 h": "> 167 µM"}
{"compound": "Cc1cccc(CNc2nc(F)nc3c2ncn3C2CCCO2)c1O (centres unmarked)", "CC50 at 72 h": "> 167 µM"}
{"compound": "Oc1cccc(CNc2ncnc3[nH]cnc23)c1 [meta-topolin, reference compound]", "CC50 at 72 h": "167 µM"}
{"compound": "CC(C)=CCNc1nc(F)nc2c1ncn2C1CCCO1 (centres unmarked)", "CC50 at 72 h": "> 167 µM"}
{"compound": "C/C(=C\\CNc1nc(F)nc2c1ncn2C1CCCCO1)CO (centres unmarked)", "CC50 at 72 h": "> 167 µM"}
{"compound": "Oc1ccc(CNc2nc(F)nc3c2ncn3C2CCCO2)o1 (centres unmarked)", "CC50 at 72 h": "> 167 µM"}
{"compound": "Cc1cc(O)cc(CNc2nc(F)nc3c2ncn3C2CCCO2)c1 (centres unmarked)", "CC50 at 72 h": "> 167 µM"}
{"compound": "COc1cc(O)cc(OC)c1CNc1nc(F)nc2c1ncn2C1CCCO1 (centres unmarked)", "CC50 at 72 h": "> 167 µM"}
{"compound": "Cc1ccc(O)c(CNc2nc(F)nc3c2ncn3C2CCCO2)c1 (centres unmarked)", "CC50 at 72 h": "> 167 µM"}
{"compound": "COc1ccc(CNc2nc(F)nc3c2ncn3C2CCCO2)c(OC)c1 (centres unmarked)", "CC50 at 72 h": "> 167 µM"}
{"compound": "Cc1cc(CNc2nc(F)nc3c2ncn3C2CCCO2)ccc1O (centres unmarked)", "CC50 at 72 h": "> 167 µM"}
{"compound": "Oc1ccoc1CNc1nc(F)nc2c1ncn2C1CCCO1 (centres unmarked)", "CC50 at 72 h": "> 167 µM"}

----------
procedure_text: Calcein AM cytotoxicity assay, B10A.4 cells
assay_setup: mouse, b10a.4 macrophages, Cytotoxicity IC50, B10A.4, second column headed B10A.4

{"compound": "COc1cccc(CNc2nc(F)nc3c2ncn3C2CCCO2)c1O (stereo not drawn) [Compound 20]", "CC50 at 72 h": "126 µM"}
{"compound": "Oc1ccccc1CNc1nc(F)nc2c1ncn2C1CCCO1 (stereo not drawn) [Compound 14]", "CC50 at 72 h": "> 167 µM"}
{"compound": "CC(C)=CCNc1nc(F)nc2c1ncn2C1CCCO1 (stereo not drawn) [Compound 13]", "CC50 at 72 h": "> 167 µM"}
{"compound": "Oc1cccc(CNc2ncnc3[nH]cnc23)c1 [meta-topolin, reference compound]", "CC50 at 72 h": "178 µM"}
{"compound": "Oc1ccccc1CNc1ncnc2nc[nH]c12 [ortho-topolin, reference compound]", "CC50 at 72 h": "94.3 µM"}
{"compound": "CC(C)=CCNc1ncnc2nc[nH]c12 [isopentenyladenine, reference compound]", "CC50 at 72 h": "147 µM"}

----------
System: Zea mays seedlings
procedure_text: Effect on development of Zea mays seedlings (hydroponic)
Assay type: in vivo, Zea mays cv. CELLUX
assay_setup: at concentration with highest activity
reported_metric: Root dry mass (%) [4 x 10^-8 mol.l^-1 Kin = 100%]

{"molecule": "Oc1cc(Cl)cc(CNc2nc(F)nc3c2ncn3C2CCCO2)c1 (centres unmarked) [Compound 27]", "reported_measurement": "194.5 (± 18) %"}
{"molecule": "Fc1nc(NCc2ccccc2)c2ncn(C3CCCCO3)c2n1 (centres unmarked) [Compound 64]", "reported_measurement": "168.9 (± 16) %"}
{"molecule": "C/C(=C/CNc1nc(F)nc2c1ncn2C1CCCCO1)CO (centres unmarked) [Compound 71]", "reported_measurement": "172.5 (± 14) %"}
{"molecule": "COc1cccc(CNc2nc(F)nc3c2ncn3C2CCCCO2)c1 (centres unmarked) [Compound 67]", "reported_measurement": "261.2 (± 20) %"}
{"molecule": "Oc1cccc(CNc2nc(F)nc3c2ncn3C2CCCCO2)c1 (centres unmarked) [Compound 65]", "reported_measurement": "187.3 (± 18) %"}

----------
procedure_text: Calcein AM cytotoxicity assay, NIH3T3 cells
assay_setup: mouse, nih3t3 cells
Method: All compound concentrations were examined in duplicates. […] Zero cytotoxicity is a basic prerequisite for the use of these substances in cosmetical applications. To assess the antitumor activity, the toxicity of new derivatives on panels containing cell lines of different histogenic and species origin was tested (Table 5). […] The compounds listed in Table 5 can be divided into 2 groups. […]
reported_metric: CC50 at 72 h

{"molecule": "COc1cc(CNc2nc(F)nc3c2ncn3C2CCCO2)cc(OC)c1O (stereo not shown)", "reported_metric": "CC50 at 72 h", "reported_measurement": "> 167 µM"}
{"molecule": "C/C(=C/CNc1nc(F)nc2c1ncn2C1CCCCO1)CO (stereo not shown)", "reported_metric": "CC50 at 72 h", "reported_measurement": "> 167 µM"}
{"molecule": "CC(CO)CCNc1nc(F)nc2c1ncn2C1CCCCO1 (stereo not shown)", "reported_metric": "CC50 at 72 h", "reported_measurement": "> 167 µM"}
{"molecule": "CC(C)=CCNc1nc(F)nc2c1ncn2C1CCCCO1 (stereo not shown)", "reported_metric": "CC50 at 72 h", "reported_measurement": "142 µM"}
{"molecule": "COc1cc(CNc2nc(F)nc3c2ncn3C2CCCO2)cc(OC)c1 (stereo not shown)", "reported_metric": "CC50 at 72 h", "reported_measurement": "> 167 µM"}
{"molecule": "COc1cccc(CNc2nc(F)nc3c2ncn3C2CCCO2)c1O (stereo not shown)", "reported_metric": "CC50 at 72 h", "reported_measurement": "> 141 µM"}
{"molecule": "COc1cc(O)cc(CNc2nc(F)nc3c2ncn3C2CCCO2)c1 (stereo not shown)", "reported_metric": "CC50 at 72 h", "reported_measurement": "> 167 µM"}
{"molecule": "COc1cccc(CNc2nc(F)nc3c2ncn3C2CCCO2)c1 (stereo not shown)", "reported_metric": "CC50 at 72 h", "reported_measurement": "> 167 µM"}
{"molecule": "Oc1cc(O)cc(CNc2nc(F)nc3c2ncn3C2CCCO2)c1 (stereo not shown)", "reported_metric": "CC50 at 72 h", "reported_measurement": "> 167 µM"}
{"molecule": "COc1ccc(CNc2nc(F)nc3c2ncn3C2CCCCO2)o1 (stereo not shown)", "reported_metric": "CC50 at 72 h", "reported_measurement": "> 167 µM"}

----------
procedure_text: Calcein AM cytotoxicity assay, B10A.4 cells
assay_setup: mouse, Cytotoxicity IC50, B10A.4, first column headed B10A.4

{"molecule": "Oc1ccc(CNc2nc(F)nc3c2ncn3C2CCCCO2)cc1 (stereo not shown) [Compound 66]", "IC50 at 72 h": "> 167 µM"}
{"molecule": "Oc1cccc(CNc2nc(F)nc3c2ncn3C2CCCCO2)c1 (stereo not shown) [Compound 65]", "IC50 at 72 h": "> 167 µM"}
{"molecule": "c1coc(CNc2ncnc3[nH]cnc23)c1 [Kinetin, reference compound]", "IC50 at 72 h": "> 167 µM"}
{"molecule": "COc1ccccc1CNc1nc(F)nc2c1ncn2C1CCCO1 (stereo not shown) [Compound 17]", "IC50 at 72 h": "> 167 µM"}
{"molecule": "COc1ccc(CNc2nc(F)nc3c2ncn3C2CCCCO2)cc1 (stereo not shown) [Compound 68]", "IC50 at 72 h": "> 167 µM"}
{"molecule": "COc1cc(CNc2nc(F)nc3c2ncn3C2CCCO2)ccc1O (stereo not shown) [Compound 43]", "IC50 at 72 h": "> 167 µM"}
{"molecule": "Oc1cccc(CNc2nc(F)nc3c2ncn3C2CCCO2)c1 (stereo not shown) [Compound 15]", "IC50 at 72 h": "> 167 µM"}
{"molecule": "Oc1ccc(CNc2nc(F)nc3c2ncn3C2CCCO2)cc1 (stereo not shown) [Compound 16]", "IC50 at 72 h": "> 167 µM"}
{"molecule": "Fc1nc(NCc2ccco2)c2ncn(C3CCCCO3)c2n1 (stereo not shown) [Compound 57]", "IC50 at 72 h": "149 µM"}
{"molecule": "Nc1ncnc2nc[nH]c12 [Adenine, reference compound]", "IC50 at 72 h": "> 167 µM"}
{"molecule": "Fc1nc(NCc2ccccc2)c2ncn(C3CCCCO3)c2n1 (stereo not shown) [Compound 64]", "IC50 at 72 h": "121 µM"}
{"molecule": "Cc1ccc(CNc2nc(F)nc3c2ncn3C2CCCCO2)o1 (stereo not shown) [Compound 60]", "IC50 at 72 h": "> 167 µM"}
{"molecule": "COc1cccc(CNc2nc(F)nc3c2ncn3C2CCCCO2)c1 (stereo not shown) [Compound 67]", "IC50 at 72 h": "> 167 µM"}
